assayed.target: Y2 receptors (Homo sapiens, UniProt P49146)
Construct: KAN-Ts endogenously expressing Y2 receptors; endogenous in cells; host or cells: KAN-Ts cells (membrane preparation)
Sequence (P49146 whole entry): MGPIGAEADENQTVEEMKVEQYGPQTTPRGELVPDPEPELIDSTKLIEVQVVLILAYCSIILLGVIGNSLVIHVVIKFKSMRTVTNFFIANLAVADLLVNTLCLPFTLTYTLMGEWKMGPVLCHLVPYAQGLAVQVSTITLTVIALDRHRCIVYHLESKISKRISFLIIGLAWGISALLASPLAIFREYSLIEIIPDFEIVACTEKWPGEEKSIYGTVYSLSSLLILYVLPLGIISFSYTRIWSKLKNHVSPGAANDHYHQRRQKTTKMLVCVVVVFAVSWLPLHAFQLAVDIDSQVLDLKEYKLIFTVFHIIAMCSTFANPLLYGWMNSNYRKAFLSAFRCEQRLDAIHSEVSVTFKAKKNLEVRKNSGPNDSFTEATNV
protocol.summary: Radioligand binding assay, [125I]PYY, KAN-Ts membranes
test.settings: membranes of KAN-Ts cells endogenously expressing Y2 receptors; [125I]PYY (80 pM); 1 h at rt
Protocol: Radioligand Binding Assay KAN-Ts endogenously expressing Y2 receptors were used for the radioligand binding assay. […] Plates were dried for 1 h in a 55° C. oven, scintillation fluid was added and the radioactivity was counted in a Packard TopCount. Specific binding to the NPY receptor subtypes was determined by radioactivity that was bound in the presence of 1 mM NPY. […] Data were expressed as pIC50 values where pIC50=−log IC50.
measured.endpoint: pIC50
Quick note: pIC50 means taking -log10 of the concentration in moles per liter.

Example entries and their recorded answers appear below.
compound=C=CCN(CCCN(C(=O)/C=C/c1ccccc1)c1ccc2c(c1)N(C(C)=O)CC2)Cc1ccccc1 numeric_result=4.92
compound="CC(=O)N1CCc2ccc(N(C(=O)/C=C/c3ccccc3)C3CCN(Cc4ccccc4)C3)cc21 (stereo not shown)" numeric_result=4.74
compound="CC(=O)N1CCc2ccc(N(C(=O)/C=C/c3ccccc3)C3CCCN(Cc4ccccc4)C3)cc21 (stereo not shown)" numeric_result=4.80

Alright, here's another compound for you.
The compound "CC(=O)N1CCc2ccc(N(CCCNCc3ccccc3)C(=O)/C=C/c3ccccc3)cc21" showed pIC50 equal to 4.92
